Biological target: HIV-1 protease I50V/A71V (Human immunodeficiency virus type 1 group M subtype B, UniProt P12497, A559V/I538V/Q495K)
Assay: biochemical
test_readout: Ki

INSERT INTO measurements (molecule, recorded_measurement) VALUES
  ('CCOP(=O)(COc1ccc(C[C@H](NC(=O)O[C@H]2CO[C@H]3OCC[C@H]32)[C@H](O)CN(CC(C)C)S(=O)(=O)c2ccc(OC)cc2)cc1)OCC [GS-8374]', '< 5 pM');

###

Test system: HIV-1-SLK
Test: Antiviral assay with resistant HIV-1 variant SLK
Type: cell-based
Details: read-out: Antiviral EC50, HIV-1-SLK; multi-PI resistant recombinant virus
pEC50: −log10 of the molar value.
test_readout: pEC50

INSERT INTO measurements (compound, system, test_readout, recorded_measurement) VALUES
  ('CCOP(=O)(COc1ccc(C[C@H](NC(=O)O[C@H]2CO[C@H]3OCC[C@H]32)[C@H](O)CN(CC(CC)CC)S(=O)(=O)c2ccc3c(c2)OCO3)cc1)OCC [PU9]', 'HIV-1-SLK', 'pEC50', '> 8.00'),
  ('CCOP(=O)(COc1ccc(C[C@H](NC(=O)O[C@H]2CO[C@H]3OCC[C@H]32)[C@H](O)CN(CC(CC)CC)S(=O)(=O)c2ccc(OC)cc2)cc1)OCC [PU7]', 'HIV-1-SLK', 'pEC50', '> 8.00');
